assay_comment: Clearance in mouse hepatocytes assessed per million cells
Assay type: ADME, cell-based, Hepatocyte
condition_details: read-out: CLH
measured_parameter: hepatocyte CLint (µL/min/1e6 cells)

1. Cc1nsc(N2CC3CCC(C2)C3Nc2nc3c(-c4ccc(F)c(F)c4F)cccn3n2)n1 (stereo not drawn) = 5.4
2. Cc1cc(N2C[C@H]3CC[C@@H](C2)[C@@H]3Nc2nc3c(OCC(F)(F)F)cccn3n2)sn1 = 15
3. Cc1cc(N2C[C@H]3CC[C@@H](C2)[C@@H]3Nc2nc3c(OCC(F)(F)C(F)(F)F)cccn3n2)on1 = 34
4. Cc1noc(N2C[C@H]3CC[C@@H](C2)[C@@H]3Nc2nc3c(OCC(F)(F)F)ccc(C(F)(F)F)n3n2)n1 = 8.5

a = Cc1cc(N2C[C@H]3CC[C@@H](C2)[C@@H]3Nc2nc3c(OCC(F)F)ccc(C(F)(F)F)n3n2)ncn1
b = Cc1nnc(N2C[C@H]3CC[C@@H](C2)[C@@H]3Nc2nc3c(O[C@@H](C)C(F)(F)F)ccc(C(F)(F)F)n3n2)o1
c = Cc1nnc(N2C[C@H]3CC[C@@H](C2)[C@@H]3Nc2nc3c(OC(C)C(F)(F)F)ccc(C(F)(F)F)n3n2)o1 (stereo partly drawn)
Rank entries according to their hepatocyte CLint, from the largest number down. # format: label list in the order the request specifies
a, b, c
(a: 9.4 µL/min/1e6 cells, b: 3.4 µL/min/1e6 cells, c: 1.6 µL/min/1e6 cells)

###

assay_comment: Modulation of mouse gamma secretase assessed as reduction in Abeta42 production
pIC50: −log10 of the molar value.
measured_parameter: pIC50

Sample records with pIC50:
1) Cc1cc(N2C[C@H]3CC[C@@H](C2)[C@@H]3Nc2nc3c(OCC(F)(F)C(F)(F)F)cccn3n2)on1 = 8.52
2) Cc1nsc(N2CC[C@@H](Nc3nc4c(-c5ccc(F)c(F)c5F)cccn4n3)C(F)(F)C2)n1 = 7.42
3) Cc1cc(N2C[C@H]3CC[C@@H](C2)[C@@H]3Nc2nc3c(OCC(F)(F)F)cccn3n2)sn1 = 8.40
4) Cc1noc(N2C[C@H]3CC[C@@H](C2)[C@@H]3Nc2nc3c(OCC(F)(F)C(F)(F)F)cccn3n2)n1 = 7.77

P = Cc1nnc(N2C[C@H]3CC[C@@H](C2)[C@@H]3Nc2nc3c(O[C@@H](C)C(F)(F)F)ccc(C(F)(F)F)n3n2)o1
Q = Cc1nsc(N2C[C@H]3CC[C@@H](C2)[C@@H]3Nc2nc3c(OCC(F)(F)F)cccn3n2)n1
// which entry reports the smaller pIC50, P or Q ? Respond using the label that marks the chosen record.
P

###

assay_comment: Octanol/water distribution co-efficient, log D of the compound at pH 7.4
Assay type: physicochemical
Documented logD across a set of compounds

1. Cc1nsc(N2C[C@H]3CC[C@@H](C2)[C@@H]3Nc2nc3c(OCCCC(F)(F)F)cccn3n2)n1 = 3.76 to 3.9
2. Cc1cc(N2C[C@H]3CC[C@@H](C2)[C@@H]3Nc2nc3c(OCC(F)(F)F)cccn3n2)sn1 = 3.9 to 3.99
3. Cc1nnc(N2C[C@H]3CC[C@@H](C2)[C@@H]3Nc2nc3c(O[C@@H](C)C(F)(F)F)ccc(C(F)(F)F)n3n2)o1 = 3.8 to 3.85

Record request: logD value, item Cc1nsc(N2CC3CCC(C2)C3Nc2nc3c(-c4ccc(F)c(F)c4F)cccn3n2)n1 (centres undefined)
4.1 to 4.14

Source: ChEMBL document CHEMBL4619803
